tested on: HEK-293T; experiment: Incucyte cell viability with HEK293T; format: toxicity, cell-based; conditions: human, 6 h, 10 µM, compound concentration 10 uM, replicate number 1, timepoint 6 hours; note: unitless GR value; below 1 slowed growth and below 0 cell loss
Would you please tag the item true (1) when its Growth Rate is 0.6 or above, and false (0) when it is below?

Given "NC(=O)c1ccc(CNC(=O)NC[C@H]2CN(Cc3ccc(Cl)c(Cl)c3)CCO2)cc1" , state whether its Growth Rate is at least 0.6.
false (0)

====

system: Fibroblast; experiment: Incucyte cell viability with human fibroblast; format: toxicity, cell-based; settings: 24 h, 10 µM, compound concentration 10 uM, replicate number 1, timepoint 24 hours; note: unitless GR value; below 1 slowed growth and below 0 cell loss
Where a SMILES comes first, the peptide text is derived from it. [ ]: non-standard residue; d: D form. Arg(Me) = CNC(=N)NCCC[C@H](N)C(=O)O; d3Pal = N[C@H](Cc1cccnc1)C(=O)O; azaGly = NNC(=O)O
Lab note: anything with Growth Rate below 0.4 is marked met; values at 0.4 or higher are marked not met.

Compound: CCCCOCCOc1nc(-c2ccc(C(=O)O)c(F)c2)sc1C
Label Class: met
//
Compound: NC(=O)c1cc2c(-c3ccc(C(=O)NCc4ccnc(Cl)c4)s3)cccc2s1
Label Class: met
//
Compound: COc1cc(OC2CCN(C(C)=O)CC2)ccc1C(=O)N1CCC(N2C(=O)OCc3ccccc32)CC1
Label Class: met

Find out if reported Growth Rate for "C[C@H](CCC(=O)O)[C@H]1CC[C@H]2[C@@H]3CC[C@@H]4C[C@H](O)CC[C@]4(C)[C@H]3CC[C@]12C" is less than 0.4
met

Same read-out for "CCNC(=O)c1cc2c(-c3cc(C(C)(C)O)ccc3Oc3c(C)cc(F)cc3C)cn(C)c(=O)c2[nH]1" ?
not met

Same read-out for "CCCCC[C@H](O)/C=C/[C@H]1CCC(=O)[C@@H]1CCCCCCC(=O)O" ?
not met

Same read-out for CNC(=N)NCCC[C@H](NC(=O)[C@H](CC(C)C)NC(=O)NNC(=O)[C@H](Cc1ccccc1)NC(=O)[C@H](CO)NC(=O)[C@H](CC(N)=O)NC(=O)[C@@H](Cc1cccnc1)NC(=O)[C@H](N)Cc1ccc(O)cc1)C(=O)NCC(N)=O [KISS1-543] (H-[dY][d3Pal]NSF[azaGly]L[Arg(Me)]G-NH2) ?
not met

Same read-out for "CN1CCC(C(=O)c2cccc(NC(=O)c3c(F)cc(F)cc3F)n2)CC1" ?
not met

Same read-out for "CCCCCCCCCCCCC/C=C/[C@@H](O)[C@@H](N)COP(=O)([O-])OCC[N+](C)(C)C" ?
met

Same read-out for CCCN(CCC)CCc1cccc2c1CC(=O)N2.Cl [ROPINIROLE HYDROCHLORIDE] ?
not met

Same read-out for "CN(C)CCn1cc(S(=O)(=O)c2cccc(F)c2)c2cccnc21.Cl.Cl" ?
not met

All values here come from ChEMBL document CHEMBL5058564.
